Where these numbers come from: patent US11034661B2

biological target: HIS-tagged IDO1 protein (Homo sapiens (Human)); experiment: IDO1 Enzyme Assay; details: recombinant IDO1 40 nM, tryptophan substrate, fluorescence readout
Sequence (P14902 whole entry): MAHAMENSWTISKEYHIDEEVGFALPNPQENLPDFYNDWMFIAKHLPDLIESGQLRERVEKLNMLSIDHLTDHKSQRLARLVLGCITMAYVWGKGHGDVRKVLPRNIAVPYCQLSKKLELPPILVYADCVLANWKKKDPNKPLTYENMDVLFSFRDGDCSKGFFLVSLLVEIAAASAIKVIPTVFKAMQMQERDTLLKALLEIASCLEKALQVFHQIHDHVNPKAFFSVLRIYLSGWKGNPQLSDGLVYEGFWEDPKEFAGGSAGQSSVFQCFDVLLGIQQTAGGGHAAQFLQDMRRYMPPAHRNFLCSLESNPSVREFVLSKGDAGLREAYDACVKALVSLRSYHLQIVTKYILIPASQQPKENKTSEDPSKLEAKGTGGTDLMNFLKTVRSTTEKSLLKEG
pIC50: −log10 of the molar value.
OUTCOME_MEASURE: pIC50

a. NS(=O)(=O)NCCCOc1nonc1/C(=N/O)N[C@H]1Cc2ccc(F)cc21
b. CC(C)(Oc1nonc1/C(=N/O)NC1Cc2ccc(F)cc21)C(=O)NCCO (stereo not shown)
c. O=C(COc1nonc1/C(=N/O)N[C@H]1Cc2ccc(F)cc21)N1CC[C@@H](O)C1
d. O=C(CO)N[C@H]1C[C@@H](Oc2nonc2/C(=N/O)N[C@H]2Cc3ccc(F)cc32)C1
Q: Order them by pIC50, ascending: the compounds above. // rank by listing labels in the order requested
Result: b, c, d, a
